# Test system: AA1029
# Assay Info: qHTS profiling for inhibitors of Plasmodium falciparum proliferation (AID 504749); note: nearly all actives have a fitted effect of over 60% in size
# Run Parameters: P. falciparum in erythrocytes, SYBR Green DNA, 72 h; series mostly up to 28.7 µM
Inconclusive results are not listed. Calls of active or inactive are those of the source. Calls come from the whole dose curve; as a rule, active = well fitted inhibition curve with a large enough effect; inconclusive = small, poorly fitted or top-dose-only effect; inactive = flat fitted curve, though single readings scatter.
Your reply should match one of these outcome classes. YES = active, NO = inactive

Compound	Assayed Target	Label Value
CS(=O)(=O)c1ccc(C2=C(c3ccccc3)C(=O)OC2)cc1	AA1029	NO

Would you mind telling me which call this test gave COc1ccnc(CS(=O)c2nc3ccc(OC(F)F)cc3[nH]2)c1OC (stereo unspecified) ?
NO

Hey, what did the test say about COc1c(C)c2c(c(O)c1CC=C(C)CCC(=O)OCCN1CCOCC1)C(=O)OC2 ?
YES

Check the results log: what was the call for C=C1c2cccc(O)c2C(O)=C2C(=O)[C@@]3(O)C(O)=C(C(N)=O)C(=O)[C@@H](N(C)C)[C@@H]3[C@@H](O)[C@H]12 ?
NO

Per the records of this test, what outcome belongs to Clc1ccc(COC(Cn2ccnc2)c2ccc(Cl)cc2Cl)c(Cl)c1 (stereo unspecified) ?
YES

Recorded test call requested for COc1cc2c(cc1OC)CC(=O)N(CCCN(C)C[C@H]1Cc3cc(OC)c(OC)cc31)CC2
NO

// outcome(item) with item = N#CC(c1ccc(Cl)cc1)c1c(Cl)cc(-n2ncc(=O)[nH]c2=O)cc1Cl (stereo unspecified)
NO

I would be grateful if you could indicate the recorded call for NS(=O)(=O)c1cc(Cl)c(Cl)c(S(N)(=O)=O)c1 .
NO

Which outcome was entered for the compound O=C(O)c1nc(=O)[nH]c(=O)[nH]1 in this test?
NO

Which outcome was entered for the compound Cc1cc2nc3c(=O)[nH]c(=O)nc-3n(CC(O)C(O)C(O)CO)c2cc1C (stereo unspecified) in this test?
NO

# lookup: test call for CN1CC(=O)N2C(Cc3c([nH]c4ccccc34)[C@H]2c2ccc3c(c2)OCO3)C1=O (stereo partly specified)
NO

###

# Assay Info: Quantitative High-Throughput drug screen in 47 multiple myeloma cell lines against the NCATS MIPE library collection: MM1S_ATCC cell viability assay (AID 1918980); note: nearly all actives have a fitted effect of over 45% in size
# Run Parameters: MM1S myeloma viability, CellTiter-Glo ATP luminescence, 48 h; series mostly up to 45.8 µM
Inconclusive results are not listed. Activity calls are given as the source filed them. Calls follow the shape of the dose curve; as a rule, active = well fitted cell-killing curve with a large enough effect; inconclusive = small, poorly fitted or top-dose-only effect, or effect the other way; inactive = no such curve, though single readings can be large or run the other way.
Outcome field: choose from TRUE (active), FALSE (inactive)

Below, 5 molecules whose answers are already recorded.
Molecule	Label Value
CC[C@H](C)C(=O)O[C@H]1C[C@H](O)C=C2C=C[C@H](C)[C@H](CC[C@@H](O)C[C@@H](O)CC(=O)O)[C@H]21	FALSE
COc1cc([C@@H]2c3cc4c(cc3[C@@H](O[C@@H]3O[C@@H]5CO[C@@H](C)O[C@@H]5[C@H](O)[C@@H]3O)[C@H]3COC(=O)[C@H]23)OCO4)cc(OC)c1O	TRUE
CC(=O)OCC(=O)[C@@]1(O)CC[C@H]2[C@@H]3CCC4=CC(=O)C=C[C@]4(C)[C@@H]3[C@@H](O)C[C@@]21C	TRUE
CC1(C)OC2CC3C4CC(F)C5=CC(=O)C=CC5(C)C4C(O)CC3(C)[C@]2(C(=O)CO)O1 (stereo partly drawn)	TRUE
Cc1csc(-c2nnc(Nc3ccc(Oc4ncccc4-c4ccnc(N)n4)cc3)c3ccccc23)c1	TRUE

Kindly provide the recorded test outcome for the following molecule: CC=C(C(=CC)c1ccc(O)cc1)c1ccc(O)cc1
TRUE

// param item: COc1ccc(C=CC(=O)Nc2ccccc2C(=O)O)cc1OC ; yields the recorded call
TRUE

Record request — test call for C[C@@]1(C(=O)Nc2ccc(F)nc2)CCCN1c1nc(Nc2cc(C3CC3)[nH]n2)c2cccn2n1
TRUE

Could you please tell me the result logged for C[C@H](CCC(=O)O)[C@H]1CC[C@H]2[C@H]3[C@@H](CC[C@]12C)[C@@]1(C)CC[C@@H](O)C[C@H]1C[C@@H]3O in this assay?
FALSE

Recorded test call requested for CC1(C)CC(=O)c2c(C(F)(F)F)nn(-c3ccc(C(N)=O)c(NC4CCC(O)CC4)c3)c2C1 (stereo not drawn)
TRUE

Dear colleague, could you share the recorded outcome for O=c1[nH]c(=O)n([C@H]2C[C@@H](O)[C@@H](CO)O2)cc1C(F)(F)F when you have a moment?
TRUE

# fetch the recorded call for COc1cc2ncnc(Nc3cc(Br)c(O)c(Br)c3)c2cc1OC here
TRUE

Entry COc1c(C)c2c(c(O)c1CC=C(C)CCC(=O)OCCN1CCOCC1)C(=O)OC2 : call = ?
TRUE

Called result for NS(=O)(=O)c1cc(Cl)c(Cl)c(S(N)(=O)=O)c1
FALSE

Outcome? O=C(Nc1ccc(OC(F)(F)F)cc1)c1sccc1NCc1ccnc2ccccc12
TRUE

###

# Assay Info: Quantitative High-Throughput drug screen in 47 multiple myeloma cell lines against the NCATS MIPE library collection: KMS26_JCRB cell viability assay (AID 1918975); note: nearly all actives have a fitted effect of over 45% in size
# Run Parameters: KMS26 myeloma cells viability, CellTiter-Glo ATP, 48 h; series mostly up to 45.8 µM
Records with an inconclusive call do not appear. The source made the active and inactive calls. Calls follow the shape of the dose curve; as a rule, active = well fitted cell-killing curve with a large enough effect; inconclusive = small, poorly fitted or top-dose-only effect, or effect the other way; inactive = no such curve, though single readings can be large or run the other way.
Give one outcome, nothing more. List: active, inactive

The following molecules have reported results that may help.
Molecule	Label Value
COc1ccc(-c2ccc3ncc4c(c3c2)n(-c2ccc(N3CCNCC3)c(C(F)(F)F)c2)c(=O)n4C)cn1	active
C[C@H](CCC(=O)O)[C@H]1CC[C@H]2[C@H]3[C@@H](CC[C@]12C)[C@@]1(C)CC[C@@H](O)C[C@H]1C[C@@H]3O	inactive
CCCCC(F)(F)[C@@]1(O)CC[C@H]2[C@H](CC(=O)[C@@H]2CCCCCCC(=O)O)O1	inactive
NC(=O)c1noc([C@H](CCCC2CCCCC2)CC(=O)NO)n1	active
N=C1SC(=Cc2ccc(-c3ccc4c(c3)C(=O)NC4=O)o2)C(=O)N1c1ccc(Br)cc1	active
C[C@]12CCC3=C4CCC(=O)C=C4CC[C@@H]3[C@H]1CC[C@@]2(O)CC#N	inactive
COc1nccc(-c2c(-c3ccc(F)cc3)ncn2C2CCC(O)CC2)n1 (centres undefined)	active
Cc1nc2c([nH]1)CCN(C(=O)c1ccc(NC(=O)c3ccccc3-c3ccccc3)cc1)c1ccccc1-2	inactive

Here is the next item to consider.
Test call, this molecule: CC(C)(OCc1nn(Cc2ccccc2)c2ccccc12)C(=O)O
active

###

# Assay Info: Quantitative High-Throughput drug screen in 47 multiple myeloma cell lines against the NCATS MIPE library collection: RPMI8226_ATCC cell viability assay (AID 1919871); note: potency is the fitted concentration of half-maximal effect; nearly all actives have a fitted effect of over 30% in size
# Run Parameters: RPMI8226 myeloma viability, CellTiter-Glo ATP luminescence, 48 h; series mostly up to 45.8 µM
Inconclusive results are not listed. Activity calls are given as the source filed them. Calls follow the shape of the dose curve; as a rule, active = well fitted cell-killing curve with a large enough effect; inconclusive = small, poorly fitted or top-dose-only effect, or effect the other way; inactive = no such curve, though single readings can be large or run the other way.
Recorded Metric: Potency

A selection of reference data follows.
CC[C@]1(O)C[C@H]2CN(CCC3=c4ccccc4=N[C]3[C@@](C(=O)OC)(c3cc4c(cc3OC)N(C)[C@H]3[C@@](O)(C(N)=O)[C@H](O)[C@]5(CC)C=CCN6CC[C@]43[C@@H]65)C2)C1 0.132 µM (active)
O=C(Nc1cccc(C(F)(F)F)c1)Nc1cc(S(=O)(=O)NC2CC2)ccc1-c1ccsc1 13.2 µM (active)

Potency reported for this compound COc1c(C)c2c(c(O)c1CC=C(C)CCC(=O)OCCN1CCOCC1)C(=O)OC2 : 4.18 µM (active)

###

# Assay Info: qHTS profiling of the MIPE4 collection as inhibitors of Plasmodium falciparum (HB3) proliferation (AID 743347);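 note: plate controls were DMSO vehicle wells for no effect and artemisinin wells for full effect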
# Run Parameters: P. falciparum HB3 in erythrocytes, SYBR Green DNA, 72 h; at 28.5 µM (top of the series) unless noted
Recorded Metric: growth, % of control (%)
Your answer should be a plain number; it is taken to be in %.

Entry CC1=C[C@@H]2[C@@H]([C@@H](O)C[C@@]3(C)[C@H]2C[C@@H](C)[C@]3(O)C(=O)CO)[C@@]2(C)Cc3cnn(-c4ccccc4)c3C=C12 — recorded growth, % of control = 11.6

growth, % of control in this record for Cc1ccc2c(=O)c3cccc(CC(=O)O)c3oc2c1C : 101

The reported value for CC1(C)CC(=O)c2c(C(F)(F)F)nn(-c3ccc(C(N)=O)c(NC4CCC(O)CC4)c3)c2C1 (stereo not given) in terms of growth, % of control is 3.53

# growth, % of control (molecule: CCCCC[C@H](O)C=C[C@H]1[C@H](O)CC(=O)[C@H]1CCCCCCC(=O)O ) is 103

// sample O=c1[nH]c(=O)n([C@H]2C[C@@H](O)[C@@H](CO)O2)cc1I , its growth, % of control was 62.7

###

# Tested on: KB-3-1
# Assay Info: Cytotoxic Profiling of Annotated Libraries Using Quantitative High-Throughput Screening (AID 1296008); note: % is set by controls: 0 for no effect and ±100 for the full control effect; nearly all actives have a fitted effect of over 60% in size
# Run Parameters: Five cell lines viability, CellTiter-Glo ATP luminescence, 48-72 h; stronger effect = lower value
# Protocol: Cell-based phenotypic screening is a commonly used approach to discover biological pathways, novel drug targets, chemical probes and high-quality hit-to-lead molecules. […] A pintool (Kalypsys) was used to transfer 23 nL of compound solution to the 1536-well assay plates. […] Plates were left at room temperature for 10 min before imaging the ATP-coupled luminescence using a ViewLux microplate imager (PerkinElmer, Waltham, MA).
Records with an inconclusive call do not appear.
Recorded Metric: max response (%)
The reply should be a number in %, with the unit left off.

Use the examples below as a reference point.
Compound	Assayed Target	max response [%]
O=C(O)C1=NC(C(=O)O)CC(C=CN2c3cc(O)c(OC4OC(CO)C(O)C(O)C4O)cc3CC2C(=O)O)=C1 (stereo not drawn)	KB-3-1	2.69
C=CC[N+]1([C@H]2C[C@H]3[C@@H]4CC[C@H]5C[C@H](O)[C@@H](N6CCOCC6)C[C@]5(C)[C@@H]4CC[C@]3(C)[C@H]2OC(C)=O)CCCC1	KB-3-1	8.47

Short answer for COC1CCC(C(=O)c2ccc3nc4c(cc3c2)CCCO4)CC1 (stereo not drawn) : max response was -15.4

// max response value for COc1cc(C=CC(=O)O)ccc1O : 4.21

Data point: CC=C(C(=CC)c1ccc(O)cc1)c1ccc(O)cc1 ; max response = -8.73

The compound identified as O=C1CCCC(=O)C1C(=O)c1ccc(C(F)(F)F)cc1[N+](=O)[O-] registered its max response at 8.25

So for COc1cc(F)c(C(C)C)cc1-c1ccc(C(F)(F)F)cc1CN1C(=O)O[C@H](c2cc(C(F)(F)F)cc(C(F)(F)F)c2)[C@@H]1C , the logged max response turned out to be -11.6

response.value for COc1ccc(-c2cc(=O)c3c(O)cc(O[C@@H]4O[C@H](CO[C@@H]5O[C@@H](C)[C@H](O)[C@@H](O)[C@@H]5O)[C@@H](O)[C@H](O)[C@@H]4O)cc3o2)cc1O (field: max response) = -0.879
